# Tested system: T1, AXL fragment # 8 (AXL amino acids 219-450, FN III-1+FN III-2+)
# T1 construct: not shown: Yeast display carrier and tags (Aga2p, HA, MYC and any linkers)
# T1 chain: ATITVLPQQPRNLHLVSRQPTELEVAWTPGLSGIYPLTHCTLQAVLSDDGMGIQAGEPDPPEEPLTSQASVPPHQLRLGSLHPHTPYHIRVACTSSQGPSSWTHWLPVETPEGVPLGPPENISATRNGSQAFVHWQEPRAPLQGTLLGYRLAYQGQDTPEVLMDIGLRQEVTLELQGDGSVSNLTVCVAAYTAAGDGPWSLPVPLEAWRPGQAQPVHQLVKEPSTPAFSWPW
# Test protocol: yeast surface display of hAXL fragments, whole yeast cell ELISA, signal normalised to anti-MYC

>  <Binder>
F107-7H5 (antibody, V domains shown, also called F107-7H5-2; mAb 7H5) VH: QVQLQQPGAELVKPGASVKLSCKASGYTFTSYWINWVKQRPGQGLEWIGNIYPDSSSTNYNEKFKSKATLTVDKSSTTAYIQFSSLTSEDSAVYYCTRDTYGGSPDYWGQGTTLTVSS VL: DIVMSQSPSSLAVSAGEKVTMSCKSSQSLLNSRTRKIYLAWYQQKPGQSPKLLIYWASTRQSGVPDRFTGSGSGTDFTLTISSVQAEDLAVYYCKQSYNLWTFGGGTKLEIK

>  <binding result>
no binding

$$$$
>  <Binder>
F111-5E9 (antibody, V domains shown, also called F111-5E9-2; mAb 5E9) VH: QIQLVQSGPELKKPGETVKISCKASGYTFTKYGMNWVKQAPGKGLKWMGWINTYTGEPTYADDFKGRFAFSLETSASTAYLQINNLTTEDMVTYFCAKGGYYSNPIYPMDYWGQGTSVTVSS VL: DIQMTQTTSSLSASLGDRVTISCRASQDINNYLNWYQQKPDGTVKLLIYYISRLHSGVPSRFSGSGSGTDYSLTISNLELEDVATYFCQQGNTLPFTFGSGTKLEIK

>  <binding result>
no binding

$$$$
